Tested on: wheat (Triticum aestivum)
Experiment: Test B pre-/postemergence plant response
Type: in vivo
Conditions: 16 g ai/ha, postemergence; 0-100 scale
endpoint_label: Wheat plant response rating

Consider the worked cases shown below.
INSERT INTO results (smiles, reported_result) VALUES
  ('CCc1cc(-c2ccc(Br)cc2)nn1-c1c(O)cnn(C)c1=O', 95),
  ('Cc1nn(C)c(=O)c(-n2nc(-c3ccc(C(F)(F)F)cc3)cc2C)c1O', 20),
  ('Cc1cc(-c2ccc(Cl)cc2)nn1-c1c(OC(=S)N(C)C)cnn(C)c1=O', 35);

Challenge: I'd like to know its Wheat plant response rating. The molecule in question is Cc1cc(-c2ccc(Br)cc2)nn1-c1c(O)cn[nH]c1=O
Response given: 85

----------
Tested on: windgrass (Apera spica-venti)
Experiment: Test C pre-/postemergence plant response
Type: in vivo
Settings: Preemergence, 8 g ai/ha; scale 0 to 100 (0 no effect, 100 complete control)
Catalogue of compounds with associated Plant response rating, Windgrass
In your answer, state the number alone without any accompanying words.

INSERT INTO assay_data (smiles, reported_result) VALUES
  ('Cc1cc(-c2ccc(Cl)cc2)nn1-c1c(OC(=O)C(C)C)cnn(C)c1=O', 0),
  ('Cn1ncc(O)c(-c2nn(-c3ccc(Cl)cc3)cc2Cl)c1=O', 20),
  ('CCc1cc(-c2ccc(C(F)(F)F)cc2)nn1-c1c(O)cnn(C)c1=O', 100),
  ('Cc1cc(-c2ccc(Cl)cc2)nn1-c1c(OC(=O)OCC(C)C)cnn(C)c1=O', 0);

Challenge: I'd like to know its Plant response rating, Windgrass. The compound in question is COC(=O)Oc1cnn(C)c(=O)c1-n1nc(-c2ccc(Cl)cc2)cc1C
Response given: 0

----------
Catalogue of compounds with associated Plant response rating, Goosegrass
System: goosegrass (Eleusine indica)
Assay: Test B pre-/postemergence plant response
Type: in vivo
Settings: Postemergence, 31 g ai/ha; scale 0 to 100, 0 no effect, 100 complete control
Description: […] Plant species in the flooded paddy test consisted of rice (Oryza sativa), umbrella sedge (Cyperus difformis), ducksalad (Heteranthera limosa) and barnyardgrass (Echinochloa crus-galli) grown to the 2-leaf stage for testing. […] Treated plants and controls were maintained in a greenhouse for 13 to 15 days, after which time all species were compared to controls and visually evaluated. […]
In your answer, state the number alone without any accompanying words.

Consider the worked cases shown below.
INSERT INTO measurements (compound, endpoint_label, reported_result) VALUES
  ('Cc1cc(-c2ccc(Cl)cc2)nn1-c1c(OS(C)(=O)=O)cnn(C)c1=O [Compound 36]', 'Plant response rating, Goosegrass', 100),
  ('Cc1cc(-c2ccc(Br)cc2)nn1-c1c(O)cnn(C)c1=O [Compound 4]', 'Plant response rating, Goosegrass', 95),
  ('CCc1cc(-c2ccc(Cl)cc2)nn1-c1c(OC(=O)OC(C)C)cnn(C)c1=O [Compound 41]', 'Plant response rating, Goosegrass', 85),
  ('Cc1cc(-c2ccc(Cl)cc2)nn1-c1c(OC(=O)C(C)C)cnn(C)c1=O [Compound 34]', 'Plant response rating, Goosegrass', 70),
  ('COC(=O)Oc1cnn(C)c(=O)c1-n1nc(-c2ccc(Cl)cc2)cc1C [Compound 33]', 'Plant response rating, Goosegrass', 90);

Switching to the query record.
Challenge: Lab request: please report Plant response rating, Goosegrass under test system goosegrass (Eleusine indica) for CCc1cc(-c2ccc(C(F)(F)F)cc2)nn1-c1c(OS(C)(=O)=O)cnn(C)c1=O [Compound 19]
Response given: 80

----------
Test system: winter barley (Hordeum vulgare)
Assay: Test B postemergence plant response
Assay type: in vivo
Conditions: Postemergence, 62 g ai/ha; scale 0 to 100
Catalogue of molecules with associated Plant response rating, Barley

Consider the worked cases shown below.
INSERT INTO results (molecule, reported_result) VALUES
  ('CCc1cc(-c2ccc(C(F)(F)F)cc2)nn1-c1c(OS(C)(=O)=O)cnn(C)c1=O [Compound 19]', 90),
  ('CCc1cc(-c2ccc(C(F)(F)F)cc2)nn1-c1c(O)cnn(C)c1=O [Compound 11]', 100),
  ('CCc1cc(-c2ccc(F)cc2)nn1-c1c(O)cnn(C)c1=O [Compound 25]', 0);

Challenge: I'd like to know its Plant response rating, Barley. The molecule in question is Cc1cc(-c2ccc(Br)cc2)nn1-c1c(O)cnn(C)c1=O [Compound 4]
Response given: 10

----------
Test system: blackgrass (Alopecurus myosuroides)
Experiment: Test B pre-/postemergence plant response
Type: in vivo
Details: Postemergence, 16 g ai/ha; scale 0 to 100
Could you mark each record 1.0 if its Plant response rating, Blackgrass falls strictly under 70, and 0.0 if it equals or exceeds it?

Observe how each entry below is paired with its result.
INSERT INTO assay_data (smiles, system, label_class) VALUES
  ('Cc1nn(C)c(=O)c(-n2nc(-c3ccc(Br)cc3)cc2C)c1O', 'blackgrass (Alopecurus myosuroides)', 0.0),
  ('Cc1cc(-c2ccc(Cl)cc2)nn1-c1c(OS(C)(=O)=O)cnn(C)c1=O', 'blackgrass (Alopecurus myosuroides)', 1.0),
  ('Cc1cc(-c2ccc(Cl)cc2)nn1-c1c(OC(=O)OCC(C)C)cnn(C)c1=O', 'blackgrass (Alopecurus myosuroides)', 0.0),
  ('CCc1cc(-c2ccc(C(F)(F)F)cc2)nn1-c1c(OS(C)(=O)=O)cnn(C)c1=O', 'blackgrass (Alopecurus myosuroides)', 0.0),
  ('Cc1cc(-c2ccc(Cl)cc2)nn1-c1c(OC(=S)N(C)C)cnn(C)c1=O', 'blackgrass (Alopecurus myosuroides)', 1.0);

Now for another entry.
Challenge: I wonder whether CCc1cc(-c2ccc(F)cc2)nn1-c1c(O)cnn(C)c1=O has Plant response rating, Blackgrass below 70. Can you tell?
Response given: 1.0

----------
Tested on: common mallow (Malva sylvestris)
Experiment: Test E pre-/postemergence plant response
Type: in vivo
Details: Postemergence, 16 g ai/ha; scale 0 to 100
Catalogue of compounds with associated Plant response rating, Mallow
In your answer, state the number alone without any accompanying words.

Consider the worked cases shown below.
INSERT INTO assay_data (smiles, reported_result) VALUES
  ('Cc1cc(-c2ccc(Cl)cc2)nn1-c1c(OS(C)(=O)=O)cnn(C)c1=O', 0),
  ('CCc1cc(-c2ccc(Cl)cc2)nn1-c1c(OS(C)(=O)=O)cnn(C)c1=O', 0),
  ('Cn1ncc(O)c(-c2nn(-c3ccc(Cl)cc3)cc2Br)c1=O', 0),
  ('CCc1cc(-c2ccc(C(F)(F)F)cc2)nn1-c1c(OS(C)(=O)=O)cnn(C)c1=O', 0),
  ('COC(=O)Oc1cnn(C)c(=O)c1-n1nc(-c2ccc(Cl)cc2)cc1C', 0);

Switching to the query record.
Challenge: Lab request: please report Plant response rating, Mallow under test system common mallow (Malva sylvestris) for CCc1cc(-c2ccc(Cl)cc2)nn1-c1c(OC(=O)C(C)(C)C)cnn(C)c1=O
Response given: 0

----------
Catalogue of molecules with associated Plant response rating, Barley
System: winter barley (Hordeum vulgare)
Experiment: Test B postemergence plant response
Type: in vivo
Conditions: Postemergence, 31 g ai/ha; scale 0 to 100, 0 no effect, 100 complete control
Method: At the same time, plants selected from these crop and weed species and also winter barley (Hordeum vulgare), canarygrass (Phalaris minor), chickweed (Stellaria media) and windgrass (Apera spica-venti) were treated with postemergence applications of some of the test chemicals formulated in the same manner. Plants ranged in height from 2 to 18 cm (1- to 4-leaf stage) for postemergence treatments. […]

Consider the worked cases shown below.
INSERT INTO assay_data (molecule, system, reported_result) VALUES
  ('Cc1cc(-c2ccc(Br)cc2)nn1-c1c(O)cn[nH]c1=O [Compound 78]', 'winter barley (Hordeum vulgare)', 95),
  ('Cc1cc(-c2ccc(Cl)cc2)nn1-c1c(OC(=O)OCC(C)C)cnn(C)c1=O [Compound 57]', 'winter barley (Hordeum vulgare)', 0),
  ('CCc1cc(-c2ccc(Cl)cc2)nn1-c1c(OC(=O)OC(C)C)cnn(C)c1=O [Compound 41]', 'winter barley (Hordeum vulgare)', 0),
  ('Cc1cc(-c2ccc(Br)cc2)nn1-c1c(O)cnn(C)c1=O [Compound 4]', 'winter barley (Hordeum vulgare)', 0),
  ('CCc1cc(-c2ccc(C(F)(F)F)cc2)nn1-c1c(OS(C)(=O)=O)cnn(C)c1=O [Compound 19]', 'winter barley (Hordeum vulgare)', 5);

Switching to the query record.
Challenge: I'd like to know its Plant response rating, Barley. The molecule in question is CCc1cc(-c2ccc(Cl)cc2)nn1-c1c(OC(=O)C(C)(C)C)cnn(C)c1=O [Compound 40]
Response given: 70

----------
Test system: blackgrass (Alopecurus myosuroides)
Assay: Test A pre-/postemergence plant response
Format: in vivo
Settings: Preemergence, 125 g ai/ha; 0 to 100 scale (0 no effect, 100 complete control)
endpoint_label: Plant response rating, Blackgrass
In your answer, state the number alone without any accompanying words.

Consider the worked cases shown below.
INSERT INTO measurements (smiles, system, endpoint_label, reported_result) VALUES
  ('Cc1cc(-c2ccc(Br)cc2)nn1-c1c(OC(=O)C2CC2)cnn(C(=O)C2CC2)c1=O', 'blackgrass (Alopecurus myosuroides)', 'Plant response rating, Blackgrass', 100),
  ('COc1nn(C)c(=O)c(-n2nc(-c3ccc(Br)cc3)cc2C)c1O', 'blackgrass (Alopecurus myosuroides)', 'Plant response rating, Blackgrass', 100),
  ('CCc1cc(-c2ccc(C(F)(F)F)cc2)nn1-c1c(OC(=O)C2CCCCC2)cnn(C)c1=O', 'blackgrass (Alopecurus myosuroides)', 'Plant response rating, Blackgrass', 100);

Challenge: I'd like to know its Plant response rating, Blackgrass. The compound in question is Cc1c(Br)c(-c2ccc(Br)cc2)nn1-c1c(O)cnn(C)c1=O
Response given: 0
